- condition-description: in ethanol, 308.15 K
measurement-name: solubility (mole fraction)

# input Can you look up the measured solubility (mole fraction) of `CCN(CC)C(=S)SSC(=S)N(CC)CC` for me?
# output 0.0063
